Source listed as paper PMC10327353.

assay: Phase 1 study: plasma pharmacokinetics; type: in vivo, human; conditions: human, plasma, oral; Day 1, 250 mg DZD1516; read-out: t1/2, Mean (SD) (converted)
result type: half-life (h)
Give bare numbers, in h.

Find the recorded half-life belonging to COc1cc(O[C@H]2CCN(C)CC2(F)F)c2c(Nc3ccc(Oc4ccn5ncnc5c4)c(C)c3)ncnc2c1 [DZD1516] and report it.
19.8

====

experiment: Phase 1 study: plasma pharmacokinetics; type: in vivo, human; conditions: human, plasma, oral; Day 1, 250 mg DZD1516; read-out: Cmax, Geometric Mean [CV%]
result type: Cmax (ng/mL)
One number for each entry, in ng/mL.

Find the recorded Cmax belonging to COc1cc(O[C@H]2CCN(C)CC2(F)F)c2c(Nc3ccc(Oc4ccn5ncnc5c4)c(C)c3)ncnc2c1 [DZD1516] and report it.
1330

====

assay: Phase 1 study: plasma pharmacokinetics; format: in vivo, human; settings: human, plasma, oral; patients; read-out: half-life
result type: half-life

Find the recorded half-life belonging to COc1cc(O[C@H]2CCN(C)CC2(F)F)c2c(Nc3ccc(Oc4ccn5ncnc5c4)c(C)c3)ncnc2c1 and report it.
13.3 to 20.1 h

====

target: TrkA(h) (Homo sapiens, UniProt P04629)
result type: IC50 (µM)
Give bare numbers, in µM.

Form field - read-out: IC50; system: TrkA(h) (Homo sapiens, UniProt P04629); submitted item: COc1cc(O[C@H]2CCN(C)CC2(F)F)c2c(Nc3ccc(Oc4ccn5ncnc5c4)c(C)c3)ncnc2c1
1.29

====

assay: Caco-2 passive permeability; assay type: in vitro ADME; details: human, Caco-2, pH 7.4; read-out: Caco-2 Papp (intrinsic passive permeability)
result type: Papp at 120 min, 5 μM (×10⁻⁶ cm/s)
Numbers only, in ×10⁻⁶ cm/s.

Find the recorded Papp at 120 min, 5 μM belonging to COc1cc(O[C@H]2CCN(C)CC2(F)F)c2c(Nc3ccc(Oc4ccn5ncnc5c4)c(C)c3)ncnc2c1 and report it.
90

====

molecular target: Met(h) (Homo sapiens, UniProt P08581); construct: purchased Eurofins UK Ltd (Dundee, UK); assay: Kinase panel assay (Eurofins); assay type: biochemical
Sequence (P08581 25-1390): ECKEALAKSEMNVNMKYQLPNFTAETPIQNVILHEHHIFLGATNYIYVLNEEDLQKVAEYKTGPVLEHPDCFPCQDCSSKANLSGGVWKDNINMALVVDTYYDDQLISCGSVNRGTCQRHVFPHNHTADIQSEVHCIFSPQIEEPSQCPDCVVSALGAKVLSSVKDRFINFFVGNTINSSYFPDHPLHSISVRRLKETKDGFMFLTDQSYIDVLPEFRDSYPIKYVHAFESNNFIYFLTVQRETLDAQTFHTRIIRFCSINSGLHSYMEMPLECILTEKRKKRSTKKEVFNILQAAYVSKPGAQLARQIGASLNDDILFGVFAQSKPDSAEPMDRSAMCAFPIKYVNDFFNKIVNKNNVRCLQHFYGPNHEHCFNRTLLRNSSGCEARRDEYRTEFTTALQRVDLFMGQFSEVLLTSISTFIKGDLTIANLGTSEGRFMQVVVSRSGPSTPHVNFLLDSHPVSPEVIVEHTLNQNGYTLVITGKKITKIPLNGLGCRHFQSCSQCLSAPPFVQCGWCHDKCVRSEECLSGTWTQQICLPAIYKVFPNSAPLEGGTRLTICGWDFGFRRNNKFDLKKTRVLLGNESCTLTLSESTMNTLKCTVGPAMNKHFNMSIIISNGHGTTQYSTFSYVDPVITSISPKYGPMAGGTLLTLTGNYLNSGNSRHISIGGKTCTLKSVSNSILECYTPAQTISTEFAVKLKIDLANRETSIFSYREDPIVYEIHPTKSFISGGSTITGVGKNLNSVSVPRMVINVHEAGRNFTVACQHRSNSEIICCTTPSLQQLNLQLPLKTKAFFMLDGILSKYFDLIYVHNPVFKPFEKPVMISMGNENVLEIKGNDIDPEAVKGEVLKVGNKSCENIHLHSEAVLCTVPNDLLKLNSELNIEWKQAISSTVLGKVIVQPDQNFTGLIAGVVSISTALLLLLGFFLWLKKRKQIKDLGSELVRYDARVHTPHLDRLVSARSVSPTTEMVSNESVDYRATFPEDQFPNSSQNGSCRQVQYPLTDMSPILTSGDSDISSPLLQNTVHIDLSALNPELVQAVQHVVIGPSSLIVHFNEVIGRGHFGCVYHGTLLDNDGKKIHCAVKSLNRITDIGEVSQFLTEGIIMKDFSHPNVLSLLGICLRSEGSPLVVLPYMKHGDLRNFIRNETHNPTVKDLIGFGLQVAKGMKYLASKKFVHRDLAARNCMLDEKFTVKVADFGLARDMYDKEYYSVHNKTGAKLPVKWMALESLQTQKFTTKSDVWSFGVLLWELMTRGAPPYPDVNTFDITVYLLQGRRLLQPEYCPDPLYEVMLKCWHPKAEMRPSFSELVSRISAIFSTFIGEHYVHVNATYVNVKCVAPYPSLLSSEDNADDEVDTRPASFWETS
result type: IC50 (µM)
One number for each entry, in µM.

Find the recorded IC50 belonging to COc1cc(O[C@H]2CCN(C)CC2(F)F)c2c(Nc3ccc(Oc4ccn5ncnc5c4)c(C)c3)ncnc2c1 and report it.
1.09

====

Assay: Phase 1 study: CSF penetration (Kp,uu,CSF)
Format: in vivo, human
Details: human, CSF to free plasma, oral, 50 mg, subject 2; read-out: Kp,uu,CSF
Method: Blood samples for PK analyses of DZD1516 and DZ2678 were collected on C0D1. […] Plasma and CSF samples were analyzed by LabCorp Madison laboratory (Madison, WI, USA) and LabCorp Shanghai laboratory (Shanghai, China) using a validated LC/MS/MS bioanalytical method to determine DZD1516 and DZ2678 concentrations. […]
result type: Kp uu
Numbers only.

Find the recorded Kp uu belonging to COc1cc(O[C@H]2CCN(C)CC2(F)F)c2c(Nc3ccc(Oc4ccn5ncnc5c4)c(C)c3)ncnc2c1 and report it.
1.62

====

assay: Phase 1 study: CSF penetration (Kp,uu,CSF); format: in vivo, human; conditions: human, CSF / free plasma, oral, 250 mg, subject 7; read-out: Kp,uu,CSF
result type: Kp uu

Find the recorded Kp uu belonging to COc1cc(O[C@H]2CCN(C)CC2(F)F)c2c(Nc3ccc(Oc4ccn5ncnc5c4)c(C)c3)ncnc2c1 [DZD1516] and report it.
1.16

====

experiment: In vivo CNS-PK study in monkey; settings: female, cynomolgus monkey, CSF (relative to unbound plasma/blood), single PO dose of DZD1516 30 mg/kg
result type: Kp uu
Give bare numbers.

Find the recorded Kp uu belonging to COc1cc(O[C@H]2CCN(C)CC2(F)F)c2c(Nc3ccc(Oc4ccn5ncnc5c4)c(C)c3)ncnc2c1 [DZD1516] and report it.
4.1

====

biological target: UniProtKB P04049
result type: pIC50
Numbers only, as −log10 of the molar value.

Find the recorded pIC50 belonging to COc1cc(O[C@H]2CCN(C)CC2(F)F)c2c(Nc3ccc(Oc4ccn5ncnc5c4)c(C)c3)ncnc2c1 and report it.
5.98

====

test: Phase 1 study: plasma pharmacokinetics; assay type: in vivo, human; conditions: human, plasma, oral, 250 mg, Day 1, 250 mg DZD1516; read-out: AUC0-72, Geometric Mean [CV%]
result type: AUC(0-t) (ng·h/mL)
Numbers only, in ng·h/mL.

Find the recorded AUC(0-t) belonging to COc1cc(O[C@H]2CCN(C)CC2(F)F)c2c(Nc3ccc(Oc4ccn5ncnc5c4)c(C)c3)ncnc2c1 [DZD1516] and report it.
13200

====

assay: Phase 1 study: CSF penetration (Kp,uu,CSF); format: in vivo, human; details: human, CSF / free plasma, oral, 100 mg, subject 4; read-out: Kp,uu,CSF
result type: Kp uu

Find the recorded Kp uu belonging to COc1cc(O[C@H]2CCN(C)CC2(F)F)c2c(Nc3ccc(Oc4ccn5ncnc5c4)c(C)c3)ncnc2c1 [DZD1516] and report it.
3.13

====

target: EGFR(T790M,L858R)(h) (Homo sapiens, UniProt P00533, L858R/T790M); test: Kinase panel assay (Eurofins)
result type: pIC50
Answers are plain numbers, as −log10 of the molar value.

Find the recorded pIC50 belonging to COc1cc(O[C@H]2CCN(C)CC2(F)F)c2c(Nc3ccc(Oc4ccn5ncnc5c4)c(C)c3)ncnc2c1 and report it.
6.61

====

biological target: ErbB4(h) (Homo sapiens)
result type: pIC50
One number for each entry, as −log10 of the molar value.

Form field - read-out: pIC50; system: ErbB4(h) (Homo sapiens); submitted item: COc1cc(O[C@H]2CCN(C)CC2(F)F)c2c(Nc3ccc(Oc4ccn5ncnc5c4)c(C)c3)ncnc2c1
7.28

====

biological target: BCRP (Homo sapiens); construct: endogenous in cells; host or cells: Caco-2; experiment: BCRP efflux ratio, bi-directional transport assay; type: in vitro ADME; settings: human, Caco-2, pH 7.4, 1 µM
Sequence (Q9UNQ0 whole entry): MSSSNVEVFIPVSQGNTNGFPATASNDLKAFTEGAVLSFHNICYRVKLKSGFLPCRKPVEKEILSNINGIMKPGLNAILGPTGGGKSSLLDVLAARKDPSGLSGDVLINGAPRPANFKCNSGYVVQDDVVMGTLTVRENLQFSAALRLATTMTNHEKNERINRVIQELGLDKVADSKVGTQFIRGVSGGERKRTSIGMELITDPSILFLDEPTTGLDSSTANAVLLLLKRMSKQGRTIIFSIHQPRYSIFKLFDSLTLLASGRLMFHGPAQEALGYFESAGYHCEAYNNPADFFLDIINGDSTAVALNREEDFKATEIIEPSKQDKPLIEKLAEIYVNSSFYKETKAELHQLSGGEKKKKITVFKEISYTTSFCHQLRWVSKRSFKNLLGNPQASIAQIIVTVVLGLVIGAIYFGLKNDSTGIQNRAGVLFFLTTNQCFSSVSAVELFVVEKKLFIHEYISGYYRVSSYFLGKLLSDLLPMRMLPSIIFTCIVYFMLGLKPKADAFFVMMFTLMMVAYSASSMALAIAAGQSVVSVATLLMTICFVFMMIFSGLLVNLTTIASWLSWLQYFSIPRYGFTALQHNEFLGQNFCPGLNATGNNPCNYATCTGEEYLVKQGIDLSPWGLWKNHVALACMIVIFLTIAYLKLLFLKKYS
result type: efflux ratio at 120 min, 1 µM

Find the recorded efflux ratio at 120 min, 1 µM belonging to COc1cc(O[C@H]2CCN(C)CC2(F)F)c2c(Nc3ccc(Oc4ccn5ncnc5c4)c(C)c3)ncnc2c1 [DZD1516] and report it.
< 2

====

molecular target: HER2 (Homo sapiens); experiment: pHER2 MSD assay in BT474C1 cells; type: cell-based; set-up: endogenous in cells; host or cells: BT474C1-Luci Mono1 (BT474 transfected with luciferase only); details: BT474C1, 4 hrs treatment
# if measured IC50 < 4 nM: true (1)  # else: false (0)

Given the entry COc1cc(O[C@@H]2CCN(C)CC2(F)F)c2c(Nc3ccc(Oc4ccn5ncnc5c4)c(C)c3)ncnc2c1 , would its reported IC50 be below 4 nM?
false (0)

Given the entry CCOc1cc2ncc(C#N)c(Nc3ccc(OCc4ccccn4)c(Cl)c3)c2cc1NC(=O)/C=C/[C@H]1CCCN1C [Pyrotinib, reference compound] , would its reported IC50 be below 4 nM?
true (1)

Given the entry Cc1cc(Nc2ncnc3cccc(OC4CCN(C)CC4)c23)ccc1Oc1ccn2ncnc2c1 , would its reported IC50 be below 4 nM?
false (0)

Given the entry COc1cc(O[C@H]2CCN(C)CC2(F)F)c2c(Nc3ccc(Oc4ccn5ncnc5c4)c(C)c3)ncnc2c1 , would its reported IC50 be below 4 nM?
false (0)

Next up:
Given the entry Cc1cc(Nc2ncnc3ccc(NC4=NC(C)(C)CO4)cc23)ccc1Oc1ccn2ncnc2c1 [Tucatinib, reference compound] , would its reported IC50 be below 4 nM?
true (1)

====

molecular target: EGFR(h) (Homo sapiens, UniProt P00533); construct: purchased Eurofins UK Ltd (Dundee, UK); assay: Kinase panel assay (Eurofins); assay type: biochemical
Sequence (P00533 25-1210): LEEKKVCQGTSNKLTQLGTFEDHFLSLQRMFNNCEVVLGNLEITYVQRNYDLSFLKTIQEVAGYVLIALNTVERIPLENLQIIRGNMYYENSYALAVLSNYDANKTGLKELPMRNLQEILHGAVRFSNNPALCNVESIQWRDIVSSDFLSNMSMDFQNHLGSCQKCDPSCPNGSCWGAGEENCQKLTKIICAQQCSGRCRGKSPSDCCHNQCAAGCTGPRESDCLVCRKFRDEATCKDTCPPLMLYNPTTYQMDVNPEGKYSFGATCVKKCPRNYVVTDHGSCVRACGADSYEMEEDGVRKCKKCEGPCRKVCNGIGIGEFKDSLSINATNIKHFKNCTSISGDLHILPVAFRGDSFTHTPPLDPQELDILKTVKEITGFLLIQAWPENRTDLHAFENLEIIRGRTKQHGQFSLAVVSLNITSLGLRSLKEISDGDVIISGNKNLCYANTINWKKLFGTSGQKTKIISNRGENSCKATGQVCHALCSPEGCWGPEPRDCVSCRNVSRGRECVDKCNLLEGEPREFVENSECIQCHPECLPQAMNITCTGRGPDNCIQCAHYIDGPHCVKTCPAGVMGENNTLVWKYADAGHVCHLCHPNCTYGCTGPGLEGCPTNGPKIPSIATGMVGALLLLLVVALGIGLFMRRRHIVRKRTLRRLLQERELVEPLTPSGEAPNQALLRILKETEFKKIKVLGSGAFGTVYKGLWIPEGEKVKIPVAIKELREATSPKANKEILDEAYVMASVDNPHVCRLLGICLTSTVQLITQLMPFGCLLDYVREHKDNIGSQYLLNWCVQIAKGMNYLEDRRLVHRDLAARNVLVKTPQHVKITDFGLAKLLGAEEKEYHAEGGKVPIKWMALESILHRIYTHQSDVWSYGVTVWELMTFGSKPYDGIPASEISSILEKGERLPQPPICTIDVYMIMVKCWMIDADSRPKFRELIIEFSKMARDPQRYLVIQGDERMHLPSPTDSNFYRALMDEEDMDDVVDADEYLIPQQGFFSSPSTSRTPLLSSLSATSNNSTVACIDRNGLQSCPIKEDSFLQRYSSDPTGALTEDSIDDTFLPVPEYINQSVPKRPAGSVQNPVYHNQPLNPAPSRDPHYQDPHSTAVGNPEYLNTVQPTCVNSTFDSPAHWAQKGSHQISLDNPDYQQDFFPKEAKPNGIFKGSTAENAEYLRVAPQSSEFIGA
result type: IC50 (nM)
One number for each entry, in nM.

Find the recorded IC50 belonging to COc1cc(O[C@H]2CCN(C)CC2(F)F)c2c(Nc3ccc(Oc4ccn5ncnc5c4)c(C)c3)ncnc2c1 and report it.
92

====

molecular target: P-gp (MDR1) (Homo sapiens, UniProt P08183); construct: expressed in transfected cells; host or cells: MDCKII-MDR1; assay: P-gp efflux ratio, bi-directional transport assay; assay type: in vitro ADME; settings: human, MDCK-MDR1, pH 7.4
Sequence (P08183 whole entry): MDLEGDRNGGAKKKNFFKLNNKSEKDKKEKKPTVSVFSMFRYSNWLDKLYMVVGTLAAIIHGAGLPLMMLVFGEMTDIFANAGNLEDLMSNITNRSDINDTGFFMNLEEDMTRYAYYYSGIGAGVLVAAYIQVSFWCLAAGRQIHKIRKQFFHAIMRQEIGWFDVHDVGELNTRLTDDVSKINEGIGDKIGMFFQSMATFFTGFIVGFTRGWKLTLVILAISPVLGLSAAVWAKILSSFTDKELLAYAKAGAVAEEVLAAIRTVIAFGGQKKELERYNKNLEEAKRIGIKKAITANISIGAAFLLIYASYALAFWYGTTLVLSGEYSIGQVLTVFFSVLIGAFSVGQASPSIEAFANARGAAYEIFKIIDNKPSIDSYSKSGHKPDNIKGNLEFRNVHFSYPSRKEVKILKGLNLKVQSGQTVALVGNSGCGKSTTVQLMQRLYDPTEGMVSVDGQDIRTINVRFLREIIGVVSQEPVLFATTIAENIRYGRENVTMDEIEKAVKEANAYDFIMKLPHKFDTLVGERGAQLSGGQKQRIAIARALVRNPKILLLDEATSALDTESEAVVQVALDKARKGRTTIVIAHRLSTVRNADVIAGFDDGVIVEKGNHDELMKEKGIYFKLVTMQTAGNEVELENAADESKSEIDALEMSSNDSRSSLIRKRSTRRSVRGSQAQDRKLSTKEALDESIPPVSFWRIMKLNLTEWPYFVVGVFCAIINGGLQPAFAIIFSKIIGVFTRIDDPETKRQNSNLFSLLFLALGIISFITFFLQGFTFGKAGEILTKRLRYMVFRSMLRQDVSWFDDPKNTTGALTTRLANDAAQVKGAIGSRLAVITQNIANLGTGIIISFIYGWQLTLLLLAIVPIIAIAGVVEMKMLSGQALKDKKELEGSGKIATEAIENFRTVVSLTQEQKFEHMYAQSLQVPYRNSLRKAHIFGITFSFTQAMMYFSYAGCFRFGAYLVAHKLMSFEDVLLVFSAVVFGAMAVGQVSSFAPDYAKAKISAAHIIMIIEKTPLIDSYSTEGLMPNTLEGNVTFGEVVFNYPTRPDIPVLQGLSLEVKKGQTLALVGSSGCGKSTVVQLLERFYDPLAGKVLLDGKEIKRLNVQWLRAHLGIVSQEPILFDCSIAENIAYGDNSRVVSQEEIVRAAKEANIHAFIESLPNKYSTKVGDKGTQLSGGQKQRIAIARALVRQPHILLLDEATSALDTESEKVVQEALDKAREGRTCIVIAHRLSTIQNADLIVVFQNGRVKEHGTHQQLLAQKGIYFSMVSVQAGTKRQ
result type: efflux ratio at 120 min, 1 µM
Numbers only.

Find the recorded efflux ratio at 120 min, 1 µM belonging to Cc1cc(Nc2ncnc3ccc(NC4=NC(C)(C)CO4)cc23)ccc1Oc1ccn2ncnc2c1 [Tucatinib, reference compound] and report it.
6.2

====

Target: Lck(h) activated (Homo sapiens, UniProt P06239)
Construct: purchased Eurofins UK Ltd (Dundee, UK)
Sequence (P06239 whole entry): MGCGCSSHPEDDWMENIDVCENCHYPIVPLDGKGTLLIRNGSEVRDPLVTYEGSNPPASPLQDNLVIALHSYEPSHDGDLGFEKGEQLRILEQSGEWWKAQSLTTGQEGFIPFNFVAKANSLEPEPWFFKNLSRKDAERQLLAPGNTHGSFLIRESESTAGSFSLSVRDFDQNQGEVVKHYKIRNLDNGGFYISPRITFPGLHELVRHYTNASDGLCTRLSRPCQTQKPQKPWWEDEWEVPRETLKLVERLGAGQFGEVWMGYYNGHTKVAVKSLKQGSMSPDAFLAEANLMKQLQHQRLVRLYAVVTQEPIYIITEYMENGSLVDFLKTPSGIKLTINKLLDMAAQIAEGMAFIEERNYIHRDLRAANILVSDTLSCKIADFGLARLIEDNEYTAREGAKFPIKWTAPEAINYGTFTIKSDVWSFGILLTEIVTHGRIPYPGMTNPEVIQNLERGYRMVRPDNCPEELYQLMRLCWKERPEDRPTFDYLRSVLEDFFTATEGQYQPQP
Test: Kinase panel assay (Eurofins)
Assay type: biochemical
Protocol: In vitro profiling of the 121-recombinant kinase panel was performed at Eurofins UK Ltd (Dundee, UK). In brief, recombinant kinases were incubated within an appropriate buffer containing peptide substrate and radiolabelled γ-^33P-ATP together with the presence or absence of the required compound concentration. […] The substrate phosphorylation was then measured by scintillation counting, which determined the level of kinase activity inhibition compared to control reactions. […]
result type: pIC50
One number for each entry, as −log10 of the molar value.

Find the recorded pIC50 belonging to COc1cc(O[C@H]2CCN(C)CC2(F)F)c2c(Nc3ccc(Oc4ccn5ncnc5c4)c(C)c3)ncnc2c1 [DZD1516] and report it.
6.74
